assay: qHTS assay to identify small molecule HDAC inhibitors (AID 1259364); conditions: HCT-116 HDAC-Glo I/II luminescence, 2 h; series mostly up to 92.4 µM;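 note: wild-type HCT-116 cells with endogenous class I/II HDAC activity; top concentration of the series differs between compounds; % is set by controls: 0 for no effect and ±100 for the full control effect; nearly all actives have a fitted effect of over 45% in size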
Results filed as inconclusive are left out. The source made the active and inactive calls. Calls come from the whole dose curve; as a rule, active = well fitted inhibition curve with a large enough effect in the repeat runs; inconclusive = weak or mixed curves; inactive = flat fitted curve, though single readings scatter.
Entry note: the call must match one of True (active), False (inactive)

Consider the worked cases shown below.
compound	category_label
CC/C(=C(/c1ccc(O)cc1)c1ccc(OCCN(C)C)cc1)c1ccccc1	False
O=c1[nH]cccc1O	False
C=C1C(CCl)(CCl)C2(Cl)C(Cl)C(Cl)C1(Cl)C2(Cl)Cl (configuration not stated)	False
Nc1ccc(Oc2cccc(Oc3ccc(N)cc3)c2)cc1	False
Cc1ccc(C=O)cc1	False
CCCCCCCCSCc1cc(C)c(O)c(CSCCCCCCCC)c1	False

Incoming: Outcome logged for C/C(=N\[Si](C)(C)C)O[Si](C)(C)C in this assay:
Outgoing: False

Incoming: Outcome logged for O=[N+]([O-])c1ccc(O)c2ncccc12 in this assay:
Outgoing: False

Incoming: Outcome logged for Nc1cccnc1N in this assay:
Outgoing: False

###

Known activity change, negative = cytotoxic of a selection of compounds
Experiment: qHTS RealTime-Glo MT Cell Viability Assay in HepG2 cells - 16 hour (AID 1224885); note: % is set by controls: 0 for no effect and ±100 for the full control effect; nearly all actives have a fitted effect of over 50% in size
Details: RealTime-Glo luminescence; series mostly up to 76.8 µM
From the text: U.S. Tox21 Program National Center for Advancing Translational Sciences [NCATS] NIH Chemical Genomics Center [NCGC] U.S. Environmental Protection Agency [EPA] National Institutes of Environmental Health Sciences [NIEHS] National Toxicology Program [NTP] U.S. Food and Drug Administration [FDA] Tox21 Assay Overview: Measure of cell viability is critical in the cell-base assay. Analysis of cell viability is necessary for the characterization of cell responses to cytotoxic drugs and environmental stress. […]
Records with an inconclusive call do not appear. Active and inactive are the calls of the source. Calls come from the whole dose curve; as a rule, active = well fitted cell-killing curve with a large enough effect in the repeat runs; inconclusive = weak or mixed curves; inactive = flat fitted curve, though single readings scatter.

Some compounds with known activity change, negative = cytotoxic results, for comparison:
smiles	result
C=C[Si](C)(C)Cl	-9.49% [at 6.97 µM] (inactive)
CCCCCCCCCCCCS(=O)(=O)Cl	1.02% [at 15.8 µM] (inactive)

Incoming: Assign activity change, negative = cytotoxic to the following record: CCCCNc1ccc(NCCCC)c2c1C(=O)c1ccccc1C2=O
Outgoing: 0.554% [at 15.8 µM] (inactive)

Incoming: Assign activity change, negative = cytotoxic to the following record: O=C(O)C[C@H](O)C[C@H](O)/C=C/c1c(C2CC2)nc2ccccc2c1-c1ccc(F)cc1
Outgoing: 0.557% [at 15.8 µM] (inactive)

Incoming: Assign activity change, negative = cytotoxic to the following record: COc1cc2ncnc(Nc3cccc(Cl)c3)c2cc1OC
Outgoing: -11.4% [at 15.8 µM] (inactive)

###

experiment: qHTS assay to identify small molecule that activate the aryl hydrocarbon receptor (AhR) signaling pathway - cell viability counter screen (AID 743086); conditions: HepG2-AhR-luc viability, CellTiter-Fluor, 24 h; series mostly up to 70.3 µM;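 note: HepG2 liver cells carrying the AhR DRE luciferase reporter; % is set by controls: 0 for no effect and ±100 for the full control effect; nearly all actives have a fitted effect of over 45% in size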
Inconclusive results are not listed. The source made the active and inactive calls. Calls follow the shape of the dose curve; as a rule, active = well fitted cell-killing curve with a large enough effect in the repeat runs; inconclusive = weak or mixed curves, or effect the other way; inactive = flat fitted curve, though single readings scatter.
Entry note: the call must match one of y = active, n = inactive

compound	category_label
O=C1C2CC3CC1CC(O)(C3)C2	n
Clc1nc(C(Cl)(Cl)Cl)c(Cl)c(Cl)c1Cl	n

Turning now to a further compound:
Incoming: Outcome logged for O=C1CCCCCCCCCCCCCC1 in this assay:
Outgoing: n

###

experiment: qHTS assay to identify small molecule antagonists of the progesterone receptor (PR) signaling pathway - cell viability counter screen (AID 1346798); conditions: PR-UAS-bla HEK293T viability, CellTiter-Glo luminescence, 16 h; series mostly up to 92.4 µM;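 note: HEK293T PR-UAS-bla cells stimulated with the agonist R5020; % is set by controls: 0 for no effect and ±100 for the full control effect; nearly all actives have a fitted effect of over 50% in size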
Records with an inconclusive call do not appear. Calls of active or inactive are those of the source. Calls follow the shape of the dose curve; as a rule, active = well fitted cell-killing curve with a large enough effect in the repeat runs; inconclusive = weak or mixed curves, or effect the other way; inactive = no such curve, though single readings can be large or run the other way.
Entry note: the call must match one of 1 for active, -1 for inactive

Incoming: Outcome logged for Oc1cccc2c(O)cccc12 in this assay:
Outgoing: -1

###

experiment: qHTS assay for identifying genotoxic compounds that show differential cytotoxicity against isogenic chicken DT40 cell lines with known DNA damage response pathways - wild type cell line (AID 743012); conditions: DT40 wild type chicken cells viability, CellTiter-Glo, 40 h; series mostly up to 68.4 µM; note: nearly all actives have a fitted effect of over 60% in size; note: potency is the fitted concentration of half-maximal effect
Results filed as inconclusive are left out. The source made the active and inactive calls. Calls come from the whole dose curve; as a rule, active = well fitted cell-killing curve with a large enough effect in the repeat runs; inconclusive = weak or mixed curves, or effect the other way; inactive = no such curve, though single readings can be large or run the other way.
measurement_name: Potency

Some compounds with known Potency results, for comparison:
compound	result
O=C1CC[C@@H](C(=O)N[C@H]2C[C@@H]2c2ccccc2)N1	inactive
C[S+](C)CCC(N)C(=O)O (stereo unspecified)	inactive
O=C(CCCCCCCCc1cccnc1)N1CCC(C=C(c2ccccc2)c2ccccc2)CC1	48.6 µM (active)
CO/N=C(\C(=O)N[C@@H]1C(=O)N2C(C(=O)O)=C(C[N+]3(C)CCCC3)CS[C@H]12)c1csc(N)n1	inactive
C[C@H](Cc1ccc(O)c(O)c1)[C@@H](C)Cc1ccc(O)c(O)c1	10.6 µM (active)

Incoming: Assign Potency to the following record: CCCC(=O)c1cc(O)c(O)cc1O
Outgoing: 24.3 µM (active)

Incoming: Assign Potency to the following record: C[N+](C)(C)CCOP(=O)(O)OP(=O)([O-])OC[C@H]1O[C@@H](n2ccc(N)nc2=O)[C@H](O)[C@@H]1O
Outgoing: inactive

Incoming: Assign Potency to the following record: CN1C(=O)C[C@@H](C(=O)N[C@@H](Cc2cnc[nH]2)C(=O)N2CCC[C@H]2C(N)=O)NC1=O
Outgoing: inactive

Incoming: Assign Potency to the following record: CC1=C(/C=C/C(C)=C/C=C/C(C)=C/C=C/C=C(C)/C=C/C=C(C)/C=C/C2=C(C)CCCC2(C)C)C(C)(C)CCC1
Outgoing: inactive

Incoming: Assign Potency to the following record: O=C(O)/C=C/C(=O)Nc1ccc(S(=O)(=O)Nc2nccs2)cc1
Outgoing: inactive

###

Test: qHTS assay to identify small molecule antagonists of the sonic hedgehog signaling (Shh) pathway (AID 1259369); note: nearly all actives have a fitted effect of over 45% in size
Settings: NIH/3T3 Gli1-Luc reporter, Shh antagonist, luminescence 24 h; series mostly up to 92.4 µM
From the text: U.S. Tox21 Program National Center for Advancing Translational Sciences [NCATS] NIH Chemical Genomics Center [NCGC] U.S. Environmental Protection Agency [EPA] National Institutes of Environmental Health Sciences [NIEHS] National Toxicology Program [NTP] U.S. Food and Drug Administration [FDA] Tox21 Assay Overview: The sonic hedgehog (Shh) pathway is essential for normal embryonic development. Dysregulation of the Shh pathway can cause severe developmental defects in organs. […]
Records with an inconclusive call do not appear. Calls of active or inactive are those of the source. The call rests on the fitted dose curve.
Entry note: the call must match one of active, inactive

compound	category_label
C=C1CC[C@H]2O[C@]2(C)CC[C@@H]2[C@@H]1CC2(C)C	inactive
CCCC(=O)c1cc(O)c(O)cc1O	active
C/C(=C\c1ccc(C(=O)O)cc1)c1ccc2c(c1)C(C)(C)CCC2(C)C	inactive
CSc1nnc(C(C)(C)C)c(=O)[nH]1	inactive

Incoming: Outcome logged for CCOC(=O)OC(=O)OCC in this assay:
Outgoing: inactive

Incoming: Outcome logged for Cc1ccc(S(=O)(=O)C(I)I)cc1 in this assay:
Outgoing: active

Incoming: Outcome logged for CCCCCCCC/C=C\CCCCCCCC(=O)N(CCO)CCO in this assay:
Outgoing: active

Incoming: Outcome logged for Oc1ccc(C2(c3ccc(O)c(C4CCCCC4)c3)CCCCC2)cc1C1CCCCC1 in this assay:
Outgoing: active

Incoming: Outcome logged for O=C(N[C@H](CO)[C@H](O)c1ccc([N+](=O)[O-])cc1)C(Cl)Cl in this assay:
Outgoing: inactive

###

assay: qHTS assay to identify small molecule antagonists of the sonic hedgehog signaling (Shh) pathway (AID 1259369); conditions: NIH/3T3 Gli1-Luc reporter, Shh antagonist, luminescence 24 h; series mostly up to 92.4 µM; note: nearly all actives have a fitted effect of over 45% in size
Results filed as inconclusive are left out. Activity calls are given as the source filed them. The call rests on the fitted dose curve.
Entry note: the call must match one of 1 for active, -1 for inactive

compound	category_label
CC/C(=C(/c1ccc(O)cc1)c1ccc(OCCN(C)C)cc1)c1ccccc1	1
O=C1CCC(=O)N1	-1
NC(=O)C1CO1 (centres undefined)	-1
CCCCCCCCCCCCCCCCCCNC(=O)OC1CCN(C(=O)OC[C@H](COC(=O)N(Cc2cccc[n+]2CC)C(=O)c2ccccc2OC)OC)CC1	1
O=C(NCc1ncc(C(F)(F)F)cc1Cl)c1c(Cl)cccc1Cl	-1

Incoming: Outcome logged for CN[C@H]1CC[C@@H](c2ccc(Cl)c(Cl)c2)c2ccc(S(N)(=O)=O)cc21 in this assay:
Outgoing: 1

Incoming: Outcome logged for [Cl][Sc]([Cl])[Cl] in this assay:
Outgoing: -1

Incoming: Outcome logged for C=CC(C)(C)O in this assay:
Outgoing: -1

Incoming: Outcome logged for CCCCCCCCCCCCN1CCCC1=O in this assay:
Outgoing: -1

###

assay: qHTS assay to identify small molecule agonists of the estrogen related receptor (ERR) signaling pathway (AID 1224820); details: ERR reporter cell line, luciferase agonist mode; series mostly up to 46.1 µM; note: % is set by controls: 0 for no effect and ±100 for the full control effect
Inconclusive results are not listed. The source made the active and inactive calls. The call rests on the fitted dose curve; in most records, active means well fitted activation curve with a large enough effect in the repeat runs; inconclusive means weak or mixed curves; inactive means no such curve, though single readings can be large or run the other way.
measurement_name: Potency

Some molecules with known Potency results, for comparison:
molecule	Potency
CCN(c1nc(N)c(C(=O)N=C(N)N)nc1Cl)C(C)C	inactive
Cn1cc(C2=C(c3ccc(Cl)cc3Cl)C(=O)NC2=O)c2ccccc21	inactive
O=c1cc(-c2ccccc2)[nH]c2nc(Cl)ccc12	inactive
NOCC(=O)O	inactive
COC(=O)C(N)Cc1ccc(Cl)cc1 (stereo not drawn)	inactive

Incoming: Assign Potency to the following record: O=C(O)CCC(C(=O)O)N1C(=O)c2ccccc2C1=O (stereo not drawn)
Outgoing: inactive

Incoming: Assign Potency to the following record: CCCCCCCCCCC/C=C\C(C)(C)/C=C\CCCC(=O)O
Outgoing: inactive
